# Tested on: crabgrass
# assay_method_text: Test C preemergence/postemergence greenhouse plant response rating 0 to 100
# Type: in vivo, Digitaria sanguinalis
# condition_details: POSTEMERGENCE, 62 g/ha, 0 to 100 scale
assay_endpoint: Plant response rating, Crabgrass
Numbers only.

# molecule, Plant response rating, Crabgrass
measured = [
    ("COc1cc(-c2nn3c(c2Cl)CCCC3)c(F)cc1Cl", 20),
    ("COC(=O)C(C)Oc1cc(-c2nn3c(c2Cl)CCCC3)c(F)cc1Cl (stereo not shown)", 20),
    ("CCOC(=O)COc1cc(-c2nn3c(c2Cl)CCCC3)c(F)cc1Cl", 10),
    ("C=CCN1C(=O)COc2cc(F)c(-c3nn4c(c3Cl)CCCC4)cc21", 20),
]

Provide the reported Plant response rating, Crabgrass of each entry below, same order.
1. C=CCN1C(=O)COc2cc(F)c(-c3nn4c(c3Br)CCCC4)cc21
2. Fc1cc(Cl)c(OCCCl)cc1-c1nn2c(c1Cl)CCCC2
3. CC(C)COc1cc(-c2nn3c(c2Cl)CCCC3)c(F)cc1Cl

output:
20
20
0

Measured values drawn from patent US6358885B1 for this set.
